Each entry below carries its recorded CC50.
# method_summary: MT4 CC50 cytotoxicity (CC50-MT4-384)
# Assay type: cell-based
# experimental_setup: human; uninfected MT-4 cells, 4-5 days, Cell-Titer Glo; Example G

Example compounds with recorded CC50:
entry_smiles: CCOC(=O)O[C@H]1[C@H](c2ccc3c(N)ncnn23)O[C@](C#N)(COC(=O)CC(C)(C)C)[C@H]1OC(=O)OCC
result: > 50 µM

entry_smiles: CCOC(=O)O[C@H]1[C@H](c2ccc3c(N)ncnn23)O[C@](C#N)(COC(=O)C(C)C)[C@H]1OC(=O)OCC
result: > 50 µM

Please look at the following compound next.
Summary for this compound, `CCOC(=O)O[C@H]1[C@H](c2ccc3c(N)ncnn23)O[C@](C#N)(COC(C)=O)[C@H]1OC(=O)OCC` : CC50 is > 50 µM
